System: COLO 205
Test: NCI tumour cell line growth inhibition, 48 h
Calls of active or inactive are those of the source. No stated cut-off is given here; in the data, active = GI50 up to about 1.1 µM and inactive = higher.
Observed Property: GI50

Compound	GI50
CO[C@@H]1C[C@H](OC(N)=O)[C@@H]2C=C[C@@H]3/C=C(C)/C=C/[C@@H](C)[C@H]([C@H](C)[C@H](O)[C@@H](C)NC(C)=O)OC(=O)/C=C/C=C(C)\C=C\[C@]3(C)[C@@H]2C1	< 0.01 µM (active)

Batch: GI50 for all items listed.
1. Cc1ccc(C2=C(Cl)C(=O)C(c3ccc(C)cc3)=C(Cl)C2=O)cc1
2. CCOC(=O)c1nc2c(Cl)c3ncccc3cc2[nH]c1=O
3. O=C1NC(Cc2ccc(O)cc2)C(=O)N2CCCC12 (stereo not given)

OUT:
["> 100 µM (inactive)", "> 100 µM (inactive)", "> 100 µM (inactive)"]

Batch: GI50 for all items listed.
1. CCCC(=O)N[C@H]1C2C3CC4C5CC(C42)C1(C)C53 (stereo not given in full)
2. COC(=O)CCC(C)[C@H]1CCC2C3C(C[C@H](OC(C)=O)[C@@]21C)[C@@]1(C)CCC2(C[C@H]1C[C@H]3OC(C)=O)OOC1(CCCCCCC1)OO2 (stereo not given in full)
3. COc1ccc2nc3ccccc3c(NCCCCCCN(C)CCCl)c2c1
4. O=C(/C=C/c1ccccc1Cl)c1ccc(Cl)c(Cl)c1
5. CCN(CC)CC1CCCCN1CC(=O)N1c2ccccc2NC(=O)CC1C (stereo not given)
6. CCCCCCC(N)(CCCCCC)C(=O)Nn1c(C)ccc1C

OUT:
> 100 µM (inactive)
7.62 µM (inactive)
0.265 µM (active)
> 100 µM (inactive)
> 100 µM (inactive)
57.4 µM (inactive)

* * *

Tested on: NCI/ADR-RES
Assay: NCI tumour cell line growth inhibition, 48 h
Active and inactive are the calls of the source. Rule as the data show it: active = GI50 up to about 1.1 µM and inactive = higher.
Classes to choose from: active, inactive

IN: I'd appreciate the recorded outcome for COC(=O)c1cccc(C)c1C1CN=NC12Cc1c(ccc(C)c1C)C2=O (configuration not stated) from this test.
OUT: inactive

IN: I'd appreciate the recorded outcome for COc1ccc(C(C#N)NC23CC4CC(CC(C4)C2)C3)cc1 (configuration not stated) from this test.
OUT: inactive

IN: I'd appreciate the recorded outcome for COc1nc(C#CCC(C)O)nc(OC)n1 (configuration not stated) from this test.
OUT: inactive

IN: I'd appreciate the recorded outcome for C=C1C(O)C2OC(=O)C(=C)C2C(OC(=O)/C(C)=C/C)CC2(C)OC2C2OC12 (configuration not stated) from this test.
OUT: inactive

IN: I'd appreciate the recorded outcome for COC1OC2COC(c3ccccc3)OC2C(OC(=S)c2ccccc2)C1O (configuration not stated) from this test.
OUT: inactive

IN: I'd appreciate the recorded outcome for "CCCCCCC(N)(CCCCCC)C(=O)Nn1c(C)ccc1C" from this test.
OUT: inactive

IN: I'd appreciate the recorded outcome for CC[C@@]12CCCN3CC[C@]4(c5cccc(OC)c5N(C(C)=O)[C@@H]4CC1)[C@H]32 [ASPIDOSPERMINE] from this test.
OUT: inactive

IN: I'd appreciate the recorded outcome for "CC(C)=CCc1[nH]c2ccccc2c1C1=C(O)C(=O)C(c2c(CC=C(C)C)[nH]c3ccccc23)=C(O)C1=O" from this test.
OUT: inactive
